Cited source for all entries: BindingDB's records for PubMed 20033049

Experiment: Inhibition of TEL fused BLK (unknown origin) transformed in mouse BaF3 cells
QUANTITY: pIC50
For clarity, pIC50 is expressed as the negative log10 of concentration in mol/L.

# pIC50 (molecule: "C=CC(=O)Nc1cccc(Oc2nc(Nc3ccc(N4CCN(C)CC4)cc3)ncc2Cl)c1" ) is 7.70

----------
Experiment: Inhibition of TEL fused BMX (unknown origin) transformed in mouse BaF3 cells
QUANTITY: pIC50
Scale for pIC50: -log10 of concentration given in mol/L; no unit attached.

pIC50 recorded for this compound, "C=CC(=O)Nc1cccc(Oc2nc(Nc3ccc(N4CCN(C)CC4)cc3)ncc2Cl)c1" , is 9.40
